Target: T1, human Origin Recognition Complex subunit 1 BAH domain, R105Q mutant (human, UniProt Q13415 45-171, R105Q)
T1 sequence (looked up): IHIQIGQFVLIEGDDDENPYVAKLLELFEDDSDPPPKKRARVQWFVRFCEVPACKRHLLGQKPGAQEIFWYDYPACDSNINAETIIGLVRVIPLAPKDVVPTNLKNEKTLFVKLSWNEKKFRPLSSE
Test: ITC
No end group written: not given here.
readout-type: pKd
Remember the convention: pKd equals -log10 of concentration in molar.

-- ask I'd like to know its pKd. The binder in question is GAKRHRCVLRDNY (not fully specified (residue 7)) [histone H4(14–25)Kc20me2 peptide]
-- reply 5.08

Source: paper PMC4654454
